Value source: ChEMBL document CHEMBL3297658

# Tested on: Liver
# Run description: Metabolic stability in mouse liver microsomes at 100 uM measured after 1 hr by LC/MS analysis in presence of 1 mM NADPH
# Assay type: ADME

- Compound: "CN1C(=O)N[C@H]2[C@@H]3NC(=O)c4ccc(Br)n4[C@@H]3C[C@]21O (stereo in doubt; 1a)"
  Test system: "Liver"
  Stability: "Stable"
- Compound: "CN1C(=O)N[C@H]2[C@@H]3NC(=O)c4cccn4[C@@H]3C[C@]21O"
  Test system: "Liver"
  Stability: "Stable"
- Compound: "CN1C(=O)N[C@H]2[C@@H]3NC(=O)c4ccc(C(F)(F)F)n4[C@@H]3C[C@]21O"
  Test system: "Liver"
  Stability: "Stable"

###

# Run description: Antitumor activity against CLL3 cells isolated from CLL patient assessed as cell viability after 48 hrs by FACS analysis
# Type: functional, cell-based
# Recorded conditions: Homo sapiens
Measured parameter: pEC50
API: returns pEC50 as number; meaning -log10 of concentration in mol/L.

Below: 3 molecules and their reported pEC50.
- Molecule: "CN1C(=O)N[C@H]2[C@@H]3NC(=O)c4cc(Cl)c(Cl)n4[C@@H]3C[C@]21O"
  Measured parameter: "pEC50"
  Result value: 6.01
- Molecule: "CN1C(=O)N[C@H]2[C@@H]3NC(=O)c4ccc(Br)n4[C@@H]3C[C@]21O (stereo in doubt; 1a)"
  Measured parameter: "pEC50"
  Result value: 6.62
- Molecule: "CN1C(=O)N[C@H]2[C@@H]3NC(=O)c4ccc(C#N)n4[C@@H]3C[C@]21O"
  Measured parameter: "pEC50"
  Result value: 5.08

Fill in the blank: the reported pEC50 of CN1C(=O)N[C@H]2[C@@H]3NC(=O)c4ccc(Cl)n4[C@@H]3C[C@]21O is ____.
5.42

Ok, now Nc1nc(F)nc2c1ncn2[C@@H]1O[C@H](CO)[C@@H](O)[C@@H]1O
6.46

Ok, now CN1C(=O)N[C@H]2[C@@H]3NC(=O)c4ccc(I)n4[C@@H]3C[C@]21O
5.18

Ok, now CN1C(=O)N[C@H]2[C@@H]3NC(=O)c4ccc(C(F)(F)F)n4[C@@H]3C[C@]21O
5.52

###

# Run description: Antitumor activity against human JVM2 cells assessed as cell viability after 48 hrs by FACS analysis
# Assay type: functional, cell-based
# Recorded conditions: JVM-2, 48 h
# if measured EC50 < 20 µM: Condition met  # else: Condition not met

Reference set, count: 5
- Compound: "CN1C(=O)N[C@H]2[C@@H]3NC(=O)c4cc(Cl)c(Cl)n4[C@@H]3C[C@]21O"
  Label: "Condition met"
- Compound: "CN1C(=O)N[C@H]2[C@@H]3NC(=O)c4cccn4[C@@H]3C[C@]21O"
  Label: "Condition not met"
- Compound: "CN1C(=O)N[C@H]2[C@@H]3NC(=O)c4cc(Cl)cn4[C@@H]3C[C@]21O"
  Label: "Condition met"
- Compound: "CN1C(=O)N[C@H]2[C@@H]3NC(=O)c4ccc(Br)n4[C@@H]3C[C@]21O (stereo in doubt; 1a)"
  Label: "Condition met"
- Compound: "CN1C(=O)N[C@@]2(O)[C@@H]3NC(=O)c4ccc(Br)n4[C@@H]3C[C@@]12O"
  Label: "Condition met"

Find out if reported EC50 for CO[C@@]12C[C@@H]3[C@H]([C@@H]1N(C)C(=O)N2C)N(C)C(=O)c1ccc(Br)n13 is less than 20 µM
Condition not met

Ok, now CN1C(=O)N[C@H]2[C@@H]3NC(=O)c4ccc(C#N)n4[C@@H]3C[C@]21O
Condition not met

Ok, now CN1C(=O)N[C@H]2[C@@H]3NC(=O)c4cc(C(F)(F)F)cn4[C@@H]3C[C@]21O
Condition not met

###

# Run description: Drug recovery in BALB/c mouse serum at 50 uM after 24 hrs by LC-MS method
# Type: ADME, cell-free
# Recorded conditions: read-out: Drug recovery
Measured parameter: remaining at 24 h, 50 µM (%)
Write the number in % without appending the unit.

- Molecule: "CN1C(=O)N[C@H]2[C@@H]3NC(=O)c4ccc(Br)n4[C@@H]3C[C@]21O (stereo in doubt; 1a) [AGELASTATIN A]"
  remaining at 24 h, 50 µM / %: 65

Consider now this further molecule.
Fill in the blank: the reported remaining at 24 h, 50 µM of CN1C(=O)N[C@H]2[C@@H]3NC(=O)c4ccc(C(F)(F)F)n4[C@@H]3C[C@]21O is ____.
65

###

# Tested on: Liver microsome
# Run description: Metabolic stability in human liver microsomes at 100 uM measured after 1 hr by LC/MS analysis in presence of 1 mM NADPH
# Assay type: ADME
Measured parameter: Stability

- Compound: "CN1C(=O)N[C@H]2[C@@H]3NC(=O)c4ccc(Br)n4[C@@H]3C[C@]21O (stereo in doubt; 1a) [AGELASTATIN A]"
  Result value: "Stable"
- Compound: "CN1C(=O)N[C@H]2[C@@H]3NC(=O)c4cccn4[C@@H]3C[C@]21O"
  Result value: "Stable"
- Compound: "CN1C(=O)N[C@H]2[C@@H]3NC(=O)c4ccc(C(F)(F)F)n4[C@@H]3C[C@]21O"
  Result value: "Stable"

###

# Run description: Cmax in BALB/c mouse plasma at 5 mg/kg, ip administered as single dose by LC/MS analysis
# Assay type: ADME, organism-based
# Parameters: dose 5 mg/kg, route intraperitoneal
Measured parameter: Cmax (nM)
Write the number in nM without appending the unit.

- Compound: "CN1C(=O)N[C@H]2[C@@H]3NC(=O)c4ccc(C(F)(F)F)n4[C@@H]3C[C@]21O"
  Cmax / nM: 3250

Consider now this further compound.
Fill in the blank: the reported Cmax of CN1C(=O)N[C@H]2[C@@H]3NC(=O)c4ccc(Br)n4[C@@H]3C[C@]21O (stereo in doubt; 1a) is ____.
2300

###

# Run description: Antitumor activity against human JVM2 cells assessed as cell viability after 48 hrs by FACS analysis
# Assay type: functional, cell-based
# Recorded conditions: JVM-2, 48 h
Measured pEC50 by item
API: returns pEC50 as number; meaning -log10 of concentration in mol/L.

Below: 3 molecules and their reported pEC50.
- Given smiles: "CN1C(=O)N[C@H]2[C@@H]3NC(=O)c4cc(I)c(Br)n4[C@@H]3C[C@]21O"
  pEC50: 3.79
- Given smiles: "CN1C(=O)N[C@H]2[C@@H]3NC(=O)c4cc(I)c(I)n4[C@@H]3C[C@]21O"
  pEC50: 4.31
- Given smiles: "O=C1N[C@H]2[C@@H]3NC(=O)c4ccc(Br)n4[C@@H]3C[C@@]2(O)N1"
  pEC50: 4.88

Consider now this further molecule.
Fill in the blank: the reported pEC50 of CN1C(=O)N[C@H]2[C@@H]3NC(=O)c4cc(Br)cn4[C@@H]3C[C@]21O is ____.
4.15

###

# Run description: Half life in BALB/c mouse plasma at 2.5 mg/kg, iv administered as single dose by LC/MS analysis
# Format: ADME, organism-based
# Set-up: dose 2.5 mg/kg, route intravenous
Measured parameter: half-life (min)
Write the number in min without appending the unit.

Fill in the blank: the reported half-life of CN1C(=O)N[C@H]2[C@@H]3NC(=O)c4ccc(Br)n4[C@@H]3C[C@]21O (stereo in doubt; 1a) is ____.
4

###

# Run description: Antitumor activity against CLL5 cells isolated from CLL patient assessed as cell viability after 48 hrs by FACS analysis
# Assay type: functional, cell-based
# Recorded conditions: Homo sapiens
# if measured EC50 < 0.3 µM: 1  # else: -1

Reference set, count: 5
- Molecule: "CN1C(=O)N[C@H]2[C@@H]3NC(=O)c4cc(Cl)c(Cl)n4[C@@H]3C[C@]21O"
  Label: -1
- Molecule: "CN1C(=O)N[C@H]2[C@@H]3NC(=O)c4ccc(C#N)n4[C@@H]3C[C@]21O"
  Label: -1
- Molecule: "Nc1nc(F)nc2c1ncn2[C@@H]1O[C@H](CO)[C@@H](O)[C@@H]1O"
  Label: 1
- Molecule: "CN1C(=O)N[C@H]2[C@@H]3NC(=O)c4ccc(C(F)(F)F)n4[C@@H]3C[C@]21O"
  Label: -1
- Molecule: "CN1C(=O)N[C@H]2[C@@H]3NC(=O)c4ccc(I)n4[C@@H]3C[C@]21O"
  Label: -1

Find out if reported EC50 for CN1C(=O)N[C@H]2[C@@H]3NC(=O)c4ccc(Br)n4[C@@H]3C[C@]21O (stereo in doubt; 1a) is less than 0.3 µM
1

Ok, now CN1C(=O)N[C@H]2[C@@H]3NC(=O)c4ccc(Cl)n4[C@@H]3C[C@]21O
-1

###

Measured half-life by item
# Run description: Half life in BALB/c mouse plasma at 5 mg/kg, ip administered as single dose by LC/MS analysis
# Format: ADME, organism-based
# Parameters: dose 5 mg/kg, route intraperitoneal
Write the number in min without appending the unit.

- Compound: "CN1C(=O)N[C@H]2[C@@H]3NC(=O)c4ccc(Br)n4[C@@H]3C[C@]21O (stereo in doubt; 1a) [AGELASTATIN A]"
  half-life [min]: 60

Consider now this further compound.
Fill in the blank: the reported half-life of CN1C(=O)N[C@H]2[C@@H]3NC(=O)c4ccc(C(F)(F)F)n4[C@@H]3C[C@]21O is ____.
45
